Assay Comment: Inhibition of protease activity of Clostridium botulinum BoNT/A light chain using 66-mer SNAP-25 as substrate by LC-MS analysis
Condition Parameters: read-out: IC50
pIC50: −log10 of the molar value.
Decide using pIC50: a value greater than or equal to 6 is met, a smaller one is not met.

[[record]]
smiles_string = "CC(C)(C)C(COC(=O)/C=C/c1ccc(O)c(O)c1)COC(=O)/C=C/c1ccc(O)c(O)c1"
class = "met"

[[record]]
smiles_string = "O=C(/C=C/c1ccc(O)c(O)c1)OC/C=C\\COC(=O)/C=C/c1ccc(O)c(O)c1"
class = "met"

[[record]]
smiles_string = "O=C(/C=C/c1ccc(O)c(O)c1)OCc1ccccc1OC(=O)/C=C/c1ccc(O)c(O)c1"
class = "met"

[[record]]
smiles_string = "O=C(/C=C/c1ccc(O)c(O)c1)Oc1cccc(OC(=O)/C=C/c2ccc(O)c(O)c2)c1"
class = "met"

[[record]]
smiles_string = "O=C(/C=C/c1ccc(O)c(O)c1)OCC#CCOC(=O)/C=C/c1ccc(O)c(O)c1"
class = "met"

[[record]]
smiles_string = "CC(C)OC(=O)[C@H](OC(=O)/C=C/c1ccc(O)c(O)c1)[C@@H](OC(=O)/C=C/c1ccc(O)c(O)c1)C(=O)OC(C)C"
class = "not met"


Exercise: Kindly determine if pIC50 recorded for O=C(Oc1ccccc1OC(=O)c1ccc(O)cc1)c1ccc(O)cc1 is above or exactly 6.
Key: not met

Exercise: What do we get for COC(=O)c1ccc(OC(=O)/C=C/c2ccc(O)c(O)c2)c(OC(=O)/C=C/c2ccc(O)c(O)c2)c1 ?
Key: met

Exercise: What do we get for O=C(/C=C/c1ccc(O)c(O)c1)Oc1cccc2cccc(OC(=O)/C=C/c3ccc(O)c(O)c3)c12 ?
Key: met

Exercise: What do we get for O=C(/C=C/c1ccc(O)c(O)c1)OC[C@H]1CC[C@H]1COC(=O)/C=C/c1ccc(O)c(O)c1 ?
Key: not met

Exercise: What do we get for O=C(/C=C/c1cccc(O)c1)Oc1ccccc1OC(=O)/C=C/c1cccc(O)c1 ?
Key: not met

* * *

Recorded IC50 for the following compounds
Assay Comment: Inhibition of protease activity of Clostridium botulinum BoNT/A light chain using 66-mer SNAP-25 as substrate by LC-MS analysis
Condition Parameters: read-out: IC50

Consider the reported IC50 for these compounds:
[[record]]
smiles_string = "O=C(/C=C/c1ccc(O)c(O)c1)OCc1ccccc1COC(=O)/C=C/c1ccc(O)c(O)c1"
measurement_kind = "IC50"
result = "1.1 µM"

[[record]]
smiles_string = "O=C(/C=C/c1ccc(O)c(O)c1)Nc1ccccc1NC(=O)/C=C/c1ccc(O)c(O)c1"
measurement_kind = "IC50"
result = "3.3 µM"

[[record]]
smiles_string = "O=C(/C=C/c1ccc(O)c(O)c1)OC[C@@H]1C[C@@H]1COC(=O)/C=C/c1ccc(O)c(O)c1"
measurement_kind = "IC50"
result = "0.13 µM"


Exercise: Data request, read-out IC50, for O=C(/C=C/c1ccc(O)c(O)c1)Oc1cc2c(cc1OC(=O)/C=C/c1ccc(O)c(O)c1)OCCO2
Key: 0.3 µM

Exercise: What do we get for O=C(/C=C/c1ccc(O)c(O)c1)O[C@H]1CCC[C@H]1OC(=O)/C=C/c1ccc(O)c(O)c1 ?
Key: 2.4 µM

Exercise: What do we get for O=C(/C=C/c1ccc(O)c(O)c1)Oc1ccccc1OC(=O)/C=C/c1ccc(O)c(O)c1 ?
Key: 0.49 µM

Exercise: What do we get for O=C(/C=C/c1ccc(O)c(O)c1)O[C@H]1CCCC[C@H]1OC(=O)/C=C/c1ccc(O)c(O)c1 ?
Key: 3.2 µM

Exercise: What do we get for O=C(/C=C/c1ccc(O)c(O)c1)O[C@@H]1CCCCC[C@H]1OC(=O)/C=C/c1ccc(O)c(O)c1 ?
Key: 3.2 µM

Exercise: What do we get for O=C(Oc1ccccc1OC(=O)c1ccc(O)c(O)c1)c1ccc(O)c(O)c1 ?
Key: > 20 µM

Data origin: ChEMBL document CHEMBL4177617
